Assay: Drug concentration in IL12/IL18-induced C57BL/6 mouse serum at 1 mg/kg, po pretreated for 1 hr followed by IL12 stimulation and subsequent IL18 addition and measured after 5 hrs
Type: ADME, organism-based
Conditions: read-out: Drug uptake
readout name: concentration at 5 h (nM)
Write down the numeric answer in nM and omit the unit.

Supply reported concentration at 5 h belonging to this compound: `[2H]C([2H])([2H])NC(=O)c1nnc(Nc2ccccn2)cc1Nc1ccccc1S(C)(=O)=O` 69

----------
Molecular target: JAK2/TYK2 (Homo sapiens, UniProt O60674+P29597)
Sequence (O60674 whole entry): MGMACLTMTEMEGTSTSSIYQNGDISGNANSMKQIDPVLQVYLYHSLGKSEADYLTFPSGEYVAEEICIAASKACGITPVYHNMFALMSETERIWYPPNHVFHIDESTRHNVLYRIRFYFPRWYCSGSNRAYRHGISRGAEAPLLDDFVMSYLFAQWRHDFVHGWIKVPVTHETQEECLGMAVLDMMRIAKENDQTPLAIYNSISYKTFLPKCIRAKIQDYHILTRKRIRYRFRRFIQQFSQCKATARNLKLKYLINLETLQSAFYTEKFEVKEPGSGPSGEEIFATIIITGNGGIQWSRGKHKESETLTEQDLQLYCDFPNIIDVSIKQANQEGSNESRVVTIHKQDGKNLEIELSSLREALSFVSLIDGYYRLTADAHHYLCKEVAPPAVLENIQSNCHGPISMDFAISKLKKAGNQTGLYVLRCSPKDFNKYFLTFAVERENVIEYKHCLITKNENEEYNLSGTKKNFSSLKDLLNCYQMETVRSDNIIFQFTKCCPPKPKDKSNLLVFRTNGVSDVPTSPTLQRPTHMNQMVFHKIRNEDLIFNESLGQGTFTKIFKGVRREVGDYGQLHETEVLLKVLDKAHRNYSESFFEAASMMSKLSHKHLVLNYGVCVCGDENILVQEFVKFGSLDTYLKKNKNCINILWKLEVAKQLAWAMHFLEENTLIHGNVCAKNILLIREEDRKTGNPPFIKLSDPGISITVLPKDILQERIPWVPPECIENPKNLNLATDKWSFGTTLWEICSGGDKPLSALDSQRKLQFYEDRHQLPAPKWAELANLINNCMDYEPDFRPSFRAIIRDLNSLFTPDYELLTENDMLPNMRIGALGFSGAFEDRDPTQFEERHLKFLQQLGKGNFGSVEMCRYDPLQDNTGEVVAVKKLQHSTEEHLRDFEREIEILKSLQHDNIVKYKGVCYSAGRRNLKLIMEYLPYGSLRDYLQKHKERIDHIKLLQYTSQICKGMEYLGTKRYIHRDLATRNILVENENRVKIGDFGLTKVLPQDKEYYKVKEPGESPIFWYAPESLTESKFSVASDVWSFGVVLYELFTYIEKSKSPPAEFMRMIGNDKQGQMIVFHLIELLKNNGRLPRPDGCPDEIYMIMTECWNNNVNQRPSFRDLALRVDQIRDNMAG
Sequence (P29597 whole entry): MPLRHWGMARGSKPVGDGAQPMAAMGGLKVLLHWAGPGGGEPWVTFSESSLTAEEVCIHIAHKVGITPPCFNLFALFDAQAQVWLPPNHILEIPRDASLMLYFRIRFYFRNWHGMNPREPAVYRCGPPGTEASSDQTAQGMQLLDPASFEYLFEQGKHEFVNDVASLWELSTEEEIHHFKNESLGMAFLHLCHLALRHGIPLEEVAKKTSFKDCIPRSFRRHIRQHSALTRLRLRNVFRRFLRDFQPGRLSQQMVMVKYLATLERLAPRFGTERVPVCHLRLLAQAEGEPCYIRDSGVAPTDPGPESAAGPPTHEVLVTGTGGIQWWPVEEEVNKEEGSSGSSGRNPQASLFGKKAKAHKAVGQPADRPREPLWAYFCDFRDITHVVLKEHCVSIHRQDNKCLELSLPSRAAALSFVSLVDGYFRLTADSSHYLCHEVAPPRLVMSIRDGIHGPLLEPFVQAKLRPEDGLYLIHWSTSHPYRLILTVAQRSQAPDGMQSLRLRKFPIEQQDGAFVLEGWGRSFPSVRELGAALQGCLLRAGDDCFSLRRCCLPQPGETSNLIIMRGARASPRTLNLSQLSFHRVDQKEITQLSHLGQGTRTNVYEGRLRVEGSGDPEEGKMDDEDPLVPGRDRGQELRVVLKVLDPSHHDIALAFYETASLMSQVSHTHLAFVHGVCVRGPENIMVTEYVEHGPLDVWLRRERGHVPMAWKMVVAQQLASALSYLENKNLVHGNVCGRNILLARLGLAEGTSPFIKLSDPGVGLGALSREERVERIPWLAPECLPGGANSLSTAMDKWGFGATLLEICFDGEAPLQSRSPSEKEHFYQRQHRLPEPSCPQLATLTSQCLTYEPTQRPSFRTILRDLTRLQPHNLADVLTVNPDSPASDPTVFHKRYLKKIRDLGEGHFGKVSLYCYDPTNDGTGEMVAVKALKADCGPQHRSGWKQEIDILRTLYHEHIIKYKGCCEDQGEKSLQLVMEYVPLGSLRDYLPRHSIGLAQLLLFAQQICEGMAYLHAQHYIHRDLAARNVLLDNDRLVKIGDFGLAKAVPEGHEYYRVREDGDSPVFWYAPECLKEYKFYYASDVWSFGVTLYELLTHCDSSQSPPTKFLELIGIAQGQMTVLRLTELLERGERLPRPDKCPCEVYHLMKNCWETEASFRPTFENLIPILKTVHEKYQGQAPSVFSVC
Experiment: Inhibition of TYK2/JAK2 in IL23-stimulated human Kit225 cells by steady-glo luciferase assay
Parameter: pIC50. Scope: all listed entries.
Please note pIC50 is a logarithmic value: minus log10 of concentration in mol/L. Answer with that number alone.

Illustrative cases are given below, each with its answer.
# sample smiles, measurement target, pIC50
rows = [
    ("CNC(=O)c1cnc(Nc2ccccn2)cc1Nc1ccccc1C(N)=O", "JAK2/TYK2 (Homo sapiens, UniProt O60674+P29597)", 6.55),
    ("CNC(=O)c1cnc(NC(=O)C(C)C)cc1Nc1ccccc1S(C)(=O)=O", "JAK2/TYK2 (Homo sapiens, UniProt O60674+P29597)", 5.96),
    ("CNC(=O)c1cnc(Nc2ccc(F)cn2)cc1Nc1ccc(F)c(F)c1OC", "JAK2/TYK2 (Homo sapiens, UniProt O60674+P29597)", 6.42),
    ("CNC(=O)c1cnc(Nc2ccc(F)cn2)cc1Nc1ccccc1", "JAK2/TYK2 (Homo sapiens, UniProt O60674+P29597)", 5.25),
    ("CNC(=O)c1cnc(Nc2ccc(F)cn2)cc1Nc1ccccc1C(N)=O", "JAK2/TYK2 (Homo sapiens, UniProt O60674+P29597)", 6.18),
    ("CNC(=O)c1cnc(Nc2cc(C)ccn2)cc1Nc1ccccc1S(C)(=O)=O", "JAK2/TYK2 (Homo sapiens, UniProt O60674+P29597)", 7.57),
]

Supply reported pIC50 belonging to this compound: `CCNC(=O)c1cnc(Nc2ccc(F)cn2)cc1Nc1ccccc1C(N)=O` 5.39

Supply reported pIC50 belonging to this compound: `CNC(=O)c1cnc(Nc2ccc(N3CCOCC3)cn2)cc1Nc1ccccc1S(C)(=O)=O` 7.15

Supply reported pIC50 belonging to this compound: `CNC(=O)c1cnc(Nc2ncccc2F)cc1Nc1ccccc1C(N)=O` 5.89

Supply reported pIC50 belonging to this compound: `CNC(=O)c1cnc(Nc2ccccc2)cc1Nc1ccccc1C(N)=O` 5.16

Supply reported pIC50 belonging to this compound: `NC(=O)c1ccccc1Nc1cc(Nc2ccc(F)cn2)ncc1C(N)=O` 7.05

Supply reported pIC50 belonging to this compound: `CCS(=O)(=O)c1ccccc1Nc1cc(Nc2ccc(F)cn2)ncc1C(=O)NC` 5.72

Supply reported pIC50 belonging to this compound: `CN(C)C(=O)c1cnc(Nc2ccc(F)cn2)cc1Nc1ccccc1C(N)=O` 4.96

Supply reported pIC50 belonging to this compound: `CNC(=O)c1cnc(Nc2ccc(F)cn2)cc1Nc1ccccc1OC` 6.51

Supply reported pIC50 belonging to this compound: `CCCC(=O)Nc1cc(Nc2ccccc2S(C)(=O)=O)c(C(=O)NC)cn1` 5.70

Supply reported pIC50 belonging to this compound: `CNC(=O)c1cnc(Nc2ccc(C)nn2)cc1Nc1ccccc1S(C)(=O)=O` 6.31

Supply reported pIC50 belonging to this compound: `CS(=O)(=O)c1ccccc1Nc1cc(Nc2ccc(F)cn2)ncc1C(N)=O` 7.34

Supply reported pIC50 belonging to this compound: `NC(=O)c1ccccc1Nc1cc(Nc2ccc(F)cn2)ncc1C(=O)NC1CC1` 5.48

Supply reported pIC50 belonging to this compound: `CNC(=O)c1cnc(Nc2ccc(F)cn2)cc1Nc1ccccc1SC` 6.48

Supply reported pIC50 belonging to this compound: `[2H]C([2H])([2H])NC(=O)c1cnc(Nc2ccc(F)cn2)cc1Nc1ccccc1S(C)(=O)=O` 6.96
